molecular target: aryl hydrocarbon receptor (AhR) (Mus musculus (Mouse)); assay: AhR ligand screening: AhRE-luciferase reporter in transfected Hepa1 cells; assay type: cell-based; details: fold change of luciferase expression at 10 uM test compound relative to vehicle (0.1% DMSO)
Sequence (P30561 10-805): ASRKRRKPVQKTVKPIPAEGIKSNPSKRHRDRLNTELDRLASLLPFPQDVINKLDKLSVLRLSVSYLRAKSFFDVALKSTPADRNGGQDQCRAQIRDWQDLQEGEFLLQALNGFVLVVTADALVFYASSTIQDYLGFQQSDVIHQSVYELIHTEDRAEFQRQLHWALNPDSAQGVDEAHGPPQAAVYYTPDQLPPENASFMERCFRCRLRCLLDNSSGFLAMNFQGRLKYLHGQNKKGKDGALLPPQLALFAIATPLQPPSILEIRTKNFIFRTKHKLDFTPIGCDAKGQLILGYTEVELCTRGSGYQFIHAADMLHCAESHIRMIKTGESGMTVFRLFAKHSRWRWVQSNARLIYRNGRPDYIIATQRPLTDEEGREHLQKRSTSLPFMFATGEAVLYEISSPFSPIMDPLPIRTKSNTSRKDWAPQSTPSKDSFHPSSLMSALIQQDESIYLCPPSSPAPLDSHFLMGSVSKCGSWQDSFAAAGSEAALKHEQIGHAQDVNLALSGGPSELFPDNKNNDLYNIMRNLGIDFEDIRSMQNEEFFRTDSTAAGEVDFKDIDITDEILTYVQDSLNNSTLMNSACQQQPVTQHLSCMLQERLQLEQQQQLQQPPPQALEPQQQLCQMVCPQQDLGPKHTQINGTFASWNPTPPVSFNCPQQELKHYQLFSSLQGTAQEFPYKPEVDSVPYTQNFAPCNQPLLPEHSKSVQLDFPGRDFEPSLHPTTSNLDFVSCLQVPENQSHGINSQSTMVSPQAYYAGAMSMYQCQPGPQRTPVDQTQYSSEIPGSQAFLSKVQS
Sequence (P53762 whole entry partner): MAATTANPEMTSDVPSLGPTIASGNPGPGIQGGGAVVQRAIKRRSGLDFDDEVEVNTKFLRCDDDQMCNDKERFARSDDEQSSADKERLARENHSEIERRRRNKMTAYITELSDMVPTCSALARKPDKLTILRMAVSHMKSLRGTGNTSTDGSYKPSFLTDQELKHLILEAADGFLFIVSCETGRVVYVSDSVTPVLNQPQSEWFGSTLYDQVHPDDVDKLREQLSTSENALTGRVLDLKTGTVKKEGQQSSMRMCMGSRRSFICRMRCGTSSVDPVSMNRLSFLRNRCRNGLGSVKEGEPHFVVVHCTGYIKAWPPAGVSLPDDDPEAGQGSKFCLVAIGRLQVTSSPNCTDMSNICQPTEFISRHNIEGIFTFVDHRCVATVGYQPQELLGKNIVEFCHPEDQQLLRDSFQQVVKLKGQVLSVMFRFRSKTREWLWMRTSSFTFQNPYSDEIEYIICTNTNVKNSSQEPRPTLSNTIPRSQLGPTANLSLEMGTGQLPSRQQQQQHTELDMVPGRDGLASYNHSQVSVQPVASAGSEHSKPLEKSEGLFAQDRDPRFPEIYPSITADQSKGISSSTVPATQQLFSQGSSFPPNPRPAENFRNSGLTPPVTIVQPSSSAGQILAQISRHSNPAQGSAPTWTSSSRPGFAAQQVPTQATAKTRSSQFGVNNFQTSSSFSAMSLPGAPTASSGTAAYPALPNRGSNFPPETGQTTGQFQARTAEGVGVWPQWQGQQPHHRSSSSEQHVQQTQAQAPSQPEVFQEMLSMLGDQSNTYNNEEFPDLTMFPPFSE
# note: exactly 4 fold is not below, so it is not satisfied; use satisfied for Fold @ 10 uM strictly under it

# example entries with known answers
O=C(c1ccccc1)n1c(-c2cccc3c2CCCC3)nc2ccc(Cl)cc21 | not satisfied
COc1ccc(-c2nc3ccc(Cl)cc3n2C(=O)c2ccccc2)cc1 | satisfied
O=C(c1ccncc1)n1c(-c2ccccc2)nc2ccc(Cl)cc21 | not satisfied
O=C(c1cc2cc(Cl)ccc2o1)c1cccc2ccccc12 | not satisfied
COC(=O)c1ccc2c(c1)nc(-c1cccc3ccccc13)n2C(=O)c1ccc(OC(F)(F)F)cc1 | satisfied

Data request: # strict comparison: is reported Fold @ 10 uM < 4 fold? input = O=C(c1ccc(F)c(F)c1)n1c(-c2cccc3c2CCCC3)nc2ccc(Cl)cc21
Data returned: not satisfied

Data request: Again, but for COC(=O)c1ccc2nc(-c3cccc4ccccc34)n(S(=O)(=O)c3ccc(C(F)(F)F)cc3)c2c1
Data returned: satisfied

Data request: Again, but for Cc1ccc(S(=O)(=O)n2c(-c3cccc4ccccc34)nc3cc(F)ccc32)cc1
Data returned: not satisfied

Data request: Again, but for O=C(c1ccc(OC(F)(F)F)cc1)n1c(-c2cccc3ccccc23)nc2cc(Cl)ccc21
Data returned: not satisfied

Data request: Again, but for O=C(c1cccc(Cl)c1Cl)c1c[nH]c2ccc(Cl)cc12
Data returned: not satisfied

Data request: Again, but for COc1ccc(C(=O)n2c(-c3cccc(C(F)(F)F)c3)nc3cc(Cl)ccc32)cc1
Data returned: not satisfied

Data request: Again, but for Cc1ccc(S(=O)(=O)n2c(-c3cccc4ccccc34)nc3ccccc32)cc1
Data returned: satisfied

Data request: Again, but for CC(C)(C)c1cccc(-c2nc3cc(Cl)ccc3n2C(=O)c2ccccc2)c1
Data returned: satisfied

Data request: Again, but for Clc1ccc2c(c1)nc1n2Cc2cccc3cccc-1c23
Data returned: not satisfied

Data request: Again, but for O=C(c1ccc(F)c(F)c1)n1c(-c2ccc(Cl)c3ccccc23)nc2cc(Cl)ccc21
Data returned: not satisfied

Data request: Again, but for O=C(c1ccncc1)n1c(-c2ccccc2)nc2cc(Cl)ccc21
Data returned: not satisfied

Data request: Again, but for COc1ccccc1S(=O)(=O)n1c(-c2cccc3ccccc23)nc2cc(C(=O)N3CCCCC3)ccc21
Data returned: satisfied

Data request: Again, but for O=C(c1ccc(F)c(F)c1)n1c(-c2cccc3ccccc23)cc2cc(Cl)ccc21
Data returned: satisfied
